assay: qHTS assay for small molecule activators of the heat shock response signaling pathway - cell viability counter screen (AID 743209); conditions: HSE-bla HeLa viability, CellTiter-Glo luminescence, 5 h; series mostly up to 62.6 µM; further: nearly all actives have a fitted effect of over 50% in size
Inconclusive results are not listed. The source made the active and inactive calls. The call rests on the fitted dose curve; in most records, active means well fitted cell-killing curve with a large enough effect in the repeat runs; inconclusive means weak or mixed curves, or effect the other way; inactive means no such curve, though single readings can be large or run the other way.
endpoint label: outcome

1. C1CNCCN1 | inactive
2. Cc1cnc(NC(=O)C2=C(O)c3ccccc3S(=O)(=O)N2C)s1 | inactive
3. c1ccc2[nH]c(-c3cscn3)nc2c1 | inactive

====

assay: qHTS RealTime-Glo MT Cell Viability Assay in HEK293 cells - 0 hour (AID 1224880); settings: RealTime-Glo luminescence; series mostly up to 76.8 µM; further: nearly all actives have a fitted effect of over 45% in size
Records with an inconclusive call do not appear. The source made the active and inactive calls. The call rests on the fitted dose curve; in most records, active means well fitted cell-killing curve with a large enough effect in the repeat runs; inconclusive means weak or mixed curves, or effect the other way; inactive means flat fitted curve, though single readings scatter.
Outcomes: active, inactive

1. CC(C)CC(C)CC(O)CC(C)C (stereo not drawn) | inactive
2. Cc1cccc(Nc2cc(Cl)nc(SCC(=O)O)n2)c1C | inactive
3. CC(C)(C)NCC(O)c1ccc(O)c(CO)c1 (stereo not drawn) | inactive
4. C[C@]12CC[C@@H]3c4ccc(O)cc4C[C@@H](CCCCCCCCCS(=O)CCCC(F)(F)C(F)(F)F)[C@H]3[C@@H]1CC[C@@H]2O (stereo partly drawn) | inactive
5. Cc1cnc(NC(=O)C2=C(O)c3ccccc3S(=O)(=O)N2C)s1 | inactive
6. COc1cc(C=O)ccc1O | inactive
7. C=C(C)C(N)=O | inactive
8. C[C@]12CC[C@@H]3c4ccc(O)cc4CC[C@H]3[C@@H]1CCC2=O | inactive
9. CCCCCCCCOc1ccc(C(=O)c2ccccc2)c(O)c1 | inactive
10. CC(C)=CCC/C(C)=C/CO | inactive
11. Cc1cccc2ccccc12 | inactive
12. CCc1cc(C(N)=S)ccn1 | inactive
13. Cn1cnc2c1c(=O)[nH]c(=O)n2C | inactive
14. CC1=C(/C=C/C(C)=C/C=C/C(C)=C/C(=O)O)C(C)(C)CCC1 | inactive
15. CN(C)C=O | inactive
16. CCOC(=O)C(C)(C)Oc1ccc(Cl)cc1 | inactive
17. COc1ccccc1O | inactive
18. C=C(C)OC(C)=O | inactive
19. c1ccc2[nH]c(-c3cscn3)nc2c1 | inactive
20. CN(C)Cc1cc(CN(C)C)c(O)c(CN(C)C)c1 | inactive
21. Nc1ccc(N=Nc2ccccc2)c(N)n1 | inactive
22. NC(=O)N/N=C/c1ccc([N+](=O)[O-])o1 | inactive
23. CCN(CC)CCOC(=O)c1ccc(N)cc1 | inactive
24. CC(=O)/C=C/C1=C(C)CCCC1(C)C | inactive
25. Cc1c(N(C)C)c(=O)n(-c2ccccc2)n1C | inactive
26. C[C@]12C[C@H](O)[C@H]3[C@@H](CCC4=CC(=O)CC[C@@]43C)[C@@H]1CC[C@@H]2C(=O)CO | active
27. O=[N+]([O-])c1ccc(O)cc1 | inactive
28. Cc1ccc(O)c(-n2nc3ccccc3n2)c1 | inactive
29. COC(=O)C1CCC(C(=O)OC)CC1 (stereo not drawn) | inactive
30. OCCCc1ccccc1 | inactive
31. CO[C@H]1C=CO[C@@]2(C)Oc3c(C)c(O)c4c(O)c(c(/C=N/N5CCN(C)CC5)c(O)c4c3C2=O)NC(=O)/C(C)=C\C=C[C@H](C)[C@H](O)[C@@H](C)[C@@H](O)[C@@H](C)[C@H](OC(C)=O)[C@@H]1C | inactive
32. Cc1c(N(C)CS(=O)(=O)O)c(=O)n(-c2ccccc2)n1C | inactive
33. O=C(OCc1ccccc1)c1ccccc1 | inactive
34. CCOCCO | inactive
35. CC1(C)O[C@@H]2[C@@H](CO[C@@]3(COS(N)(=O)=O)OC(C)(C)O[C@@H]23)O1 | inactive
36. C#C[C@]1(O)CC[C@H]2[C@@H]3CCc4cc(O)ccc4[C@H]3CC[C@@]21C | inactive
37. C=CC(=O)NC(C)(C)CS(=O)(=O)O | inactive
38. COc1ccc(O)cc1 | inactive
39. CCCCCCCCCCCCCCCCCC(=O)OCC(O)CO (stereo not drawn) | inactive
40. CC(=O)Oc1ccccc1C(=O)O | inactive
41. COc1ccc(C(=O)c2ccccc2)c(O)c1 | inactive
42. N[C@@H](Cc1c[nH]c2ccccc12)C(=O)O | inactive
43. CC(=O)CCC(C)C | inactive
44. CCCCOC(=O)CCCCCCCCC(=O)OCCCC | inactive
45. O=C(O)Cc1cccc2ccccc12 | inactive
46. CC(C)Cc1ccc(C(C)C(=O)O)cc1 (stereo not drawn) | inactive
47. COc1cc(O)c(C(=O)c2ccccc2)cc1S(=O)(=O)O | inactive
48. COc1cc2c(c(OC)c1OC)-c1ccc(OC)c(=O)cc1[C@@H](NC(C)=O)CC2 | inactive

Where do these numbers come from? They come from PubChem BioAssay (Tox21).
